Entry source: ChEMBL document CHEMBL3232804

I'd be grateful if you could share measured selectivity ratio for these entries.
Experiment: Selectivity index, ratio of IC50 for african green monkey Vero cells to IC50 for chloroquine-sensitive Plasmodium falciparum 3D7
Type: toxicity, cell-based
Conditions: read-out: Ratio IC50
Numbers only.

Consider the reported selectivity ratio for these compounds:
>  <givenSmiles>
Clc1ccc(/N=C(\NCCNc2ccnc3cc(Cl)ccc23)Nc2ccc(Oc3cc(Cl)ccc3Cl)cc2)cc1

>  <recordedMeasurement>
189

$$$$
>  <givenSmiles>
COc1ccc(Oc2ccccc2N/C(=N/c2cccc(Cl)c2)NCCCNc2ccnc3cc(Cl)ccc23)cc1

>  <recordedMeasurement>
10.4

$$$$
>  <givenSmiles>
Clc1cccc(/N=C(\NCCNc2ccnc3cc(Cl)ccc23)Nc2ccc(Oc3cc(Cl)ccc3Cl)cc2)c1

>  <recordedMeasurement>
53.2

$$$$
>  <givenSmiles>
Clc1ccc(/N=C(\NCCNc2ccnc3cc(Cl)ccc23)Nc2ccccc2Oc2cc(Cl)ccc2Cl)cc1

>  <recordedMeasurement>
16.5

$$$$
>  <givenSmiles>
Clc1ccc(Cl)c(Oc2ccc(N/C(=N/c3ccccc3)NCCCCNc3ccnc4cc(Cl)ccc34)cc2)c1

>  <recordedMeasurement>
29.9

$$$$
>  <givenSmiles>
COC(=O)/C(C)=C/c1ccc(Oc2ccccc2N/C(=N/c2cccc(Cl)c2)NCCCCNc2ccnc3cc(Cl)ccc23)cc1

>  <recordedMeasurement>
80.7

$$$$
>  <givenSmiles>
COC(=O)/C(C)=C/c1ccc(Oc2ccccc2N/C(=N/c2ccccc2)NCCCNc2ccnc3cc(Cl)ccc23)cc1

>  <recordedMeasurement>
37.2

$$$$

Attention now turns to another entry.
Asked: Which selectivity ratio reading was recorded for the compound Clc1ccc(/N=C(\NCCCCNc2ccnc3cc(Cl)ccc23)Nc2ccc(Oc3cc(Cl)ccc3Cl)cc2)cc1 ?
Given back: 756

###

Test: Selectivity index, ratio of IC50 for african green monkey Vero cells to IC50 for chloroquine-sensitive Plasmodium falciparum 3D7
Format: toxicity, cell-based
Details: read-out: Ratio IC50
Please go through the items and note down their selectivity ratio.
One number for each entry.

Take a look at these entries with their results.
>  <givenSmiles>
Clc1cccc(/N=C(\NCCNc2ccnc3cc(Cl)ccc23)Nc2ccccc2Oc2cc(Cl)ccc2Cl)c1

>  <selectivity ratio>
56.2

$$$$
>  <givenSmiles>
COc1ccc(Oc2ccccc2N/C(=N/c2ccc(Cl)cc2)NCCNc2ccnc3cc(Cl)ccc23)cc1

>  <selectivity ratio>
172

$$$$
>  <givenSmiles>
Clc1cccc(/N=C(\NCCCNc2ccnc3cc(Cl)ccc23)Nc2ccc(Oc3cc(Cl)ccc3Cl)cc2)c1

>  <selectivity ratio>
44.5

$$$$

Asked: Using the record for COc1ccc(Oc2ccc(N/C(=N/c3ccc(Cl)cc3)NCCCNc3ccnc4cc(Cl)ccc34)cc2)cc1 , report its selectivity ratio.
Given back: 82.1

###

Would you mind telling me the reported pIC50 of each entry?
System: Plasmodium falciparum
Assay: Antiplasmodial activity against chloroquine-resistant Plasmodium falciparum K1 infected after 72 hrs by Malaria SYBR Green I-staining based fluorescence assay
Assay type: functional, organism-based
Conditions: K1, 72 h
Numbers only, as −log10 of the molar value.

Observe how each entry below is paired with its result.
>  <givenSmiles>
COC(=O)/C(C)=C/c1ccc(Oc2ccccc2N/C(=N/c2ccccc2)NCCNc2ccnc3cc(Cl)ccc23)cc1

>  <recordedMeasurement>
6.77

$$$$
>  <givenSmiles>
COC(=O)/C(C)=C/c1ccc(Oc2ccccc2N/C(=N/c2ccc(Cl)cc2)NCCNc2ccnc3cc(Cl)ccc23)cc1

>  <recordedMeasurement>
6.38

$$$$

// for each compound below, give its pIC50
1. COc1ccc(Oc2ccc(N/C(=N/c3cccc(Cl)c3)NCCCNc3ccnc4cc(Cl)ccc34)cc2)cc1
2. COc1ccc(Oc2ccccc2N/C(=N/c2ccc(Cl)cc2)NCCNc2ccnc3cc(Cl)ccc23)cc1
3. Clc1cccc(/N=C(\NCCNc2ccnc3cc(Cl)ccc23)Nc2ccccc2Oc2cc(Cl)ccc2Cl)c1
4. Clc1ccc(/N=C(\NCCCCNc2ccnc3cc(Cl)ccc23)Nc2ccccc2Oc2cc(Cl)ccc2Cl)cc1
5. COc1ccc(Oc2ccc(N/C(=N/c3cccc(Cl)c3)NCCCCNc3ccnc4cc(Cl)ccc34)cc2)cc1
6. COc1ccc(Oc2ccc(N/C(=N/c3ccccc3)NCCCNc3ccnc4cc(Cl)ccc34)cc2)cc1

Given back:
1: 6.63; 2: 6.48; 3: 6.37; 4: 6.82; 5: 6.83; 6: 6.17

Give pIC50 for each listed item.
1. COC(=O)/C(C)=C/c1ccc(Oc2ccc(N/C(=N/c3ccc(Cl)cc3)NCCCCNc3ccnc4cc(Cl)ccc34)cc2)cc1
2. COc1ccc(Oc2ccccc2N/C(=N/c2cccc(Cl)c2)NCCNc2ccnc3cc(Cl)ccc23)cc1
3. Clc1ccc(Cl)c(Oc2ccccc2N/C(=N/c2ccccc2)NCCCCNc2ccnc3cc(Cl)ccc23)c1
4. COC(=O)/C(C)=C/c1ccc(Oc2ccc(N/C(=N/c3ccc(Cl)cc3)NCCCNc3ccnc4cc(Cl)ccc34)cc2)cc1
5. COC(=O)/C(C)=C/c1ccc(Oc2ccccc2N/C(=N/c2cccc(Cl)c2)NCCCNc2ccnc3cc(Cl)ccc23)cc1

Given back:
6.15
6.70
7.03
6.70
6.53
